test system: ragweed (common ragweed, Ambrosia elatior); test: Test A preemergence; format: in vivo; conditions: Ambrosia artemisiifolia, pre-emergence, 240 h, 31 g ai/ha, Preemergence; 0 to 100 scale where 0 is no effect and 100 is complete control; read-out: Ragweed plant response rating
TEST_READOUT: pest or weed control at 31 g/ha
Please make sure the unit comes right after the number.

Please report pest or weed control at 31 g/ha for the following compound: `COc1cccc([C@H]2CN(C)C(=O)[C@@H]2C(=O)Nc2cccc(F)c2F)c1`
70%

State its pest or weed control at 31 g/ha for this compound: `C=C(C)c1ccc([C@H]2CN(C)C(=O)[C@@H]2C(=O)Nc2cccc(F)c2C)cc1`
0%

Provide one value: measured pest or weed control at 31 g/ha of `CN1C[C@H](c2ccc3c(c2)OC(F)(F)O3)[C@@H](C(=O)Nc2cccnc2F)C1=O`
0%
